Where do these numbers come from? They come from patent US20210230266A1.

MEASURED_TARGET: T1, Human IL-11 (human, UniProt P20809 22-199)
T1 construct: Recombinant human IL-11 (GenScript Cat. No. Z03108-1) or IL-11 secreted by human cells; the mature form is said to have 178 residues; also called recombinant human IL-11; endogenously produced IL-11
T1 sequence: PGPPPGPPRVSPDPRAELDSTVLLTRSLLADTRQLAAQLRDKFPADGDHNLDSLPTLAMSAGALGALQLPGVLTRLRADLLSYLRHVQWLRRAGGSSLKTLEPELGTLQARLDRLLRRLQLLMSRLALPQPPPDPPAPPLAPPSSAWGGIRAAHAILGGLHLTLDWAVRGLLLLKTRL
ASSAY_NAME: SPR, Single Cycle Kinetics, BIAcore T200; human IL-11 immobilised on CM5 chip, antibody in IgG1 format as analyte, 1:1 model
READOUT_TYPE: Kd (µM)
# value in µM; strip the unit string

Worked examples, 2 binders total:
>>> recorded_value("01I (antibody, IgG1, V domains shown, C91I variant of the YU100-H01 VL) VH: QVQLVQSGGGVVQPGRSLRLSCAASGFTFSSYAMHWVRQAPGKGLEWVAVISYDGSNKYYADSVKGRFTISRDNSKNTLYLQMNSLRAEDTAVYYCARIMGYDYGDYDVVDYWGQGTLVTVSS VL: QSALTQPRSVSGSPGQSVTISCTGTSSDVGAYNYVSWYQQHPGKAPKLMIYDVSERPSGVPDRFSGSKSGNTASLTISGLQAEDEADYYCISYAGSYTWVFGGGTKLTVLG")
0.0292
>>> recorded_value("01S (antibody, IgG1, V domains shown, C91S variant of the YU100-H01 VL) VH: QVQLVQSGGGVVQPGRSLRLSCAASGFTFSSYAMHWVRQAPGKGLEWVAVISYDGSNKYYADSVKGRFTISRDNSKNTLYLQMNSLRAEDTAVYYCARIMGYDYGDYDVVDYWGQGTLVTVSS VL: QSALTQPRSVSGSPGQSVTISCTGTSSDVGAYNYVSWYQQHPGKAPKLMIYDVSERPSGVPDRFSGSKSGNTASLTISGLQAEDEADYYCSSYAGSYTWVFGGGTKLTVLG")
0.107

Requested read-out: Kd. Entry: YU100-H01 (antibody, human IgG1, V domains shown, Light chain shuffled human antibody; Only the variable domains are tied to the clone) VH: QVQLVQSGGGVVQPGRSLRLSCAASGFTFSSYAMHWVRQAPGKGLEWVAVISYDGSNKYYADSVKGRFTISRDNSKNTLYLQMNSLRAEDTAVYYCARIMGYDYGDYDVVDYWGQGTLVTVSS VL: QSALTQPRSVSGSPGQSVTISCTGTSSDVGAYNYVSWYQQHPGKAPKLMIYDVSERPSGVPDRFSGSKSGNTASLTISGLQAEDEADYYCCSYAGSYTWVFGGGTKLTVLG
0.0423

What value of Kd has been recorded for this entry: 01Q (antibody, IgG1, V domains shown, C91Q variant of the YU100-H01 VL) VH: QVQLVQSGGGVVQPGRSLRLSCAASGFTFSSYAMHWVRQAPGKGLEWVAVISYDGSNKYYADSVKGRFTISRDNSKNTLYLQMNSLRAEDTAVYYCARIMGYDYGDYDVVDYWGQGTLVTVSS VL: QSALTQPRSVSGSPGQSVTISCTGTSSDVGAYNYVSWYQQHPGKAPKLMIYDVSERPSGVPDRFSGSKSGNTASLTISGLQAEDEADYYCQSYAGSYTWVFGGGTKLTVLG
0.104

Reported Kd for 01T (antibody, IgG1, V domains shown, C91T variant of the YU100-H01 VL) VH: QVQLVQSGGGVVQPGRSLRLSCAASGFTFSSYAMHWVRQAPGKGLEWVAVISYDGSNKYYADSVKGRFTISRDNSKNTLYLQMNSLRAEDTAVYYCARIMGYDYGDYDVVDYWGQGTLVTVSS VL: QSALTQPRSVSGSPGQSVTISCTGTSSDVGAYNYVSWYQQHPGKAPKLMIYDVSERPSGVPDRFSGSKSGNTASLTISGLQAEDEADYYCTSYAGSYTWVFGGGTKLTVLG : what is it?
0.0171
